# Tested on: MKL-1
# test protocol: qHTS assay to identify novel small-molecules to repurpose for Merkel cell carcinoma treatment (AID 1296009); further: nearly all actives have a fitted effect of over 60% in size
# assay context: MCC and control cell lines, CellTiter-Glo viability, 72 h; series mostly up to 46 µM
Records with an inconclusive call do not appear. Activity calls are given as the source filed them. The call rests on the fitted dose curve; in most records, active means well fitted inhibition curve with a large enough effect; inconclusive means small, poorly fitted or top-dose-only effect; inactive means flat fitted curve, though single readings scatter.
Write down one outcome, taken from label 1 (active), label 0 (inactive)

Previously resolved entries follow.
compound: Cc1cc(O)c2ccccc2c1O
discrete label: label 1
//
compound: COC(=O)C1=C(C)NC(C)=C(C(=O)OCC(C)=O)C1c1ccccc1[N+](=O)[O-] (centres undefined)
discrete label: label 1
//
compound: O=C(O)/C=C\C(=O)O
discrete label: label 0
//
compound: O=C(O)c1ccccc1Nc1cccc(C(F)(F)F)c1
discrete label: label 0
//
compound: O=C(/C=C/c1ccccc1)NCCO
discrete label: label 0

Which outcome was assigned to `CC1(C)S[C@@H]2[C@H](NC(=O)[C@H](N)c3ccccc3)C(=O)N2[C@H]1C(=O)O` in this test?
label 0

Which outcome was assigned to `Nc1c(CC(=O)O)cccc1C(=O)c1ccc(Br)cc1` in this test?
label 0

Which outcome was assigned to `c1ccc2sc(SSc3nc4ccccc4s3)nc2c1` in this test?
label 0

Which outcome was assigned to `Cc1c(C(=O)O)c(O)cc2c1C(=O)c1c(O)c([C@@H]3O[C@H](CO)[C@@H](O)[C@H](O)[C@H]3O)c(O)c(O)c1C2=O` in this test?
label 0

====

# target under test: Furin (Homo sapiens) (UniProt P09958)
# Sequence (P09958 whole entry, looked up): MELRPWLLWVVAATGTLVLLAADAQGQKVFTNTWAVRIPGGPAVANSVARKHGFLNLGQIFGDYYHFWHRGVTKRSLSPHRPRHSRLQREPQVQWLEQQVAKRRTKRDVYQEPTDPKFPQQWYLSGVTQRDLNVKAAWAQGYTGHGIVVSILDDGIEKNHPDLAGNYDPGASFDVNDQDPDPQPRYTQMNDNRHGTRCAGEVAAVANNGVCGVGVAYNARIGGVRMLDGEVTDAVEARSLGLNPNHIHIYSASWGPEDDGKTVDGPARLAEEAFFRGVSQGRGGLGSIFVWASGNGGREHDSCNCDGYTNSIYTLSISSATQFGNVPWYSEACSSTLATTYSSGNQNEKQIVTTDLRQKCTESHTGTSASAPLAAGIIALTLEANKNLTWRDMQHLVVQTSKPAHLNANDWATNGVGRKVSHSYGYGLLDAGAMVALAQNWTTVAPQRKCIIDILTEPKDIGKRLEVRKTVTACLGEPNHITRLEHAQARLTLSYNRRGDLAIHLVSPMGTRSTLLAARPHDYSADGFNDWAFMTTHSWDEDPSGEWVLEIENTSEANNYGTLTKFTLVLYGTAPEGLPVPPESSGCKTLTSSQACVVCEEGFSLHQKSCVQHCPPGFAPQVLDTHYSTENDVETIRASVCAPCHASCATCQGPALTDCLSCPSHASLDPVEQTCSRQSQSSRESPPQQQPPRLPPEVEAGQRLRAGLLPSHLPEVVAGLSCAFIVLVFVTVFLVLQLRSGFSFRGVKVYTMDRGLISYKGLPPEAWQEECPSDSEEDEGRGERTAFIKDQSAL
# test protocol: Furin counterscreen qHTS for Zika virus inhibitors (AID 1347149); further: nearly all actives have a fitted effect of over 70% in size; further: potency means the concentration at half of the fitted maximal effect
# assay context: furin enzymatic counterscreen, fluorogenic substrate; series mostly up to 57.5 µM
# Source text: Avindra Nath, Ph.D., National Institute of Neurological Disorders and Stroke (NINDS), Bethesda, MD Radhakrishnan Padmanabhan, Ph.D., Georgetown University (GU), Washington D.C. Zika Virus causes congenital defects, including microcephaly and is associated with Guillain-Barre syndrome, eningoencephalitis and myelitis in infected adult. […]
Inconclusive results are not listed. The source made the active and inactive calls. The call rests on the fitted dose curve; in most records, active means well fitted inhibition curve with a large enough effect; inconclusive means small, poorly fitted or top-dose-only effect; inactive means no such curve, though single readings can be large or run the other way.
measured endpoint: Potency

given smiles: O=C(NOCC1CC1)c1cc(Br)c(F)c(F)c1Nc1ccc(I)cc1Cl
measured endpoint: Potency
observed: inactive

given smiles: CC[C@@H](C)[C@H]1O[C@]2(CC[C@H]1C)C[C@@H]1C[C@@H](CC=C(C)[C@@H](O[C@H]3C[C@H](OC)[C@@H](O[C@H]4C[C@H](OC)[C@@H](O)[C@H](C)O4)[C@H](C)O3)[C@@H](C)C=CC=C3CO[C@@H]4[C@H](O)C(C)=C[C@@H](C(=O)O1)[C@]34O)O2
measured endpoint: Potency
observed: inactive

given smiles: NC(=O)C(=O)O
measured endpoint: Potency
observed: inactive

given smiles: C=C[C@@H]1CN2CC[C@@H]1C[C@H]2[C@H](O)c1ccnc2ccc(OC)cc12
measured endpoint: Potency
observed: 24.1 µM (active)

====

# System: Zika virus NS2B-NS3 protease (unlinked)
# test protocol: Optimization of GU AMC qHTS for Zika virus inhibitors: Unlinked NS2B-NS3 protease assay (AID 1347151); further: nearly all actives have a fitted effect of over 80% in size
# assay context: recombinant ZIKV NS2B-NS3 protease, fluorogenic AMC substrate; series mostly up to 52.5 µM
Results filed as inconclusive are left out. Activity calls are given as the source filed them. Calls follow the shape of the dose curve; as a rule, active = well fitted inhibition curve with a large enough effect; inconclusive = small, poorly fitted or top-dose-only effect; inactive = no such curve, though single readings can be large or run the other way.
Write down one outcome, taken from active, inactive

Previously resolved entries follow.
molecule: COc1ccc2c(c1)CCC1C2CC[C@@]2(C)C1CC[C@@H]2NCCCCCCN1C(=O)CCC1=O (some centres undefined)
target under test: Zika virus NS2B-NS3 protease (unlinked)
discrete label: inactive

molecule: Nc1nc2ccc(Cl)cc2n2c(-c3ccccc3)nnc12
target under test: Zika virus NS2B-NS3 protease (unlinked)
discrete label: inactive

molecule: S=c1[nH]c(-c2ccccc2)cn1-c1ccccc1
target under test: Zika virus NS2B-NS3 protease (unlinked)
discrete label: active

molecule: O=C1NC(=O)/C(=C/c2ccc3nccnc3c2)S1
target under test: Zika virus NS2B-NS3 protease (unlinked)
discrete label: inactive

molecule: O=C(c1ccc(OCCCc2cnc[nH]2)cc1)C1CC1
target under test: Zika virus NS2B-NS3 protease (unlinked)
discrete label: inactive

Which outcome was assigned to `COc1ccccc1CN[C@@H]1CCCN[C@@H]1c1ccccc1` in this test?
inactive

Which outcome was assigned to `NCCCS(=O)(=O)O` in this test?
inactive

====

# Test system: SC27B
# test protocol: qHTS profiling for inhibitors of Plasmodium falciparum proliferation (AID 504749); further: nearly all actives have a fitted effect of over 60% in size
# assay context: P. falciparum in erythrocytes, SYBR Green DNA, 72 h; series mostly up to 28.7 µM
# Description: NIH National Institute of Allergy and Infectious Diseases [NIAID] NIH Chemical Genomics Center [NCGC] […] Because mature erythrocytes lack DNA, only Plasmodium-derived DNA is detected. NCGC Assay Protocol Summary: The SYBR Green viability assay was adapted from a method described previously (Plouffe et al., 2008). […] The following morning, fluorescence intensity at 485(14) nm excitation and 535(25) nm emission wavelengths was measured on an EnVision (Perkin Elmer) plate reader. […]
Inconclusive results are not listed. Calls of active or inactive are those of the source. Calls come from the whole dose curve; as a rule, active = well fitted inhibition curve with a large enough effect; inconclusive = small, poorly fitted or top-dose-only effect; inactive = flat fitted curve, though single readings scatter.
Write down one outcome, taken from active, inactive

compound: [O-][n+]1ccccc1SSc1cccc[n+]1[O-]
discrete label: active

Which outcome was assigned to `Nc1ccc(O)c(C(=O)O)c1` in this test?
inactive

Which outcome was assigned to `c1ccc2sc(SSc3nc4ccccc4s3)nc2c1` in this test?
inactive

Which outcome was assigned to `Cc1c(Nc2ncccc2C(=O)O)cccc1C(F)(F)F` in this test?
inactive

Which outcome was assigned to `O=C1CN(/N=C/c2ccc(-c3ccc([N+](=O)[O-])cc3)o2)C(=O)N1` in this test?
inactive

Which outcome was assigned to `N=c1ccn2c(n1)O[C@H]1[C@H](O)[C@@H](CO)O[C@H]12` in this test?
inactive

====

# test protocol: Confirmatory qHTS for small molecule stabilizers of the endoplasmic reticulum resident proteome: Secreted ER Calcium Modulated Protein (SERCaMP) assay (AID 1508628); further: nearly all actives have a fitted effect of over 40% in size
# assay context: SERCaMP secreted luciferase ER calcium/proteostasis reporter; series mostly up to 76.3 µM
Inconclusive results are not listed. The source made the active and inactive calls. Calls come from the whole dose curve; as a rule, active = well fitted inhibition curve with a large enough effect; inconclusive = small, poorly fitted or top-dose-only effect; inactive = no such curve, though single readings can be large or run the other way.
Write down one outcome, taken from active, inactive

compound: Cc1ccc(C(=O)O[C@H](C(=O)O)[C@@H](OC(=O)c2ccc(C)cc2)C(=O)O)cc1 (tested in a mixture with another compound)
discrete label: inactive

Which outcome was assigned to C[N+]1(C)C2CC(OC(=O)[C@H](CO)c3ccccc3)CC1C1OC12 (stereo not given in full) in this test?
inactive

Which outcome was assigned to `N#C/C(=C\c1c[nH]c2ccccc12)C(=O)c1ccc(O)c(O)c1` in this test?
active

Which outcome was assigned to `Oc1ccccc1O` in this test?
active

Which outcome was assigned to `CNCC[C@H](Oc1ccc(C(F)(F)F)cc1)c1ccccc1` in this test?
inactive

Which outcome was assigned to `O=C1CN(/N=C/c2ccc(-c3ccc([N+](=O)[O-])cc3)o2)C(=O)N1` in this test?
active

Which outcome was assigned to `CCCN(CC1CC1)c1nc(C)nc(Nc2c(Cl)cc(Cl)cc2Cl)c1Cl` in this test?
inactive

Which outcome was assigned to `Cc1c(C(=O)O)c(O)cc2c1C(=O)c1c(O)c([C@@H]3O[C@H](CO)[C@@H](O)[C@H](O)[C@H]3O)c(O)c(O)c1C2=O` in this test?
active

Which outcome was assigned to COc1cc(NC(C)CCCN)c2ncccc2c1 (stereo not given) in this test?
inactive

Which outcome was assigned to `O=C(Nc1ccccc1)c1cc([N+](=O)[O-])ccc1Cl` in this test?
inactive

Which outcome was assigned to `Oc1cc(O)cc(/C=C/c2ccc(O)c(O)c2)c1` in this test?
inactive

Which outcome was assigned to `COc1ccc(/C=C/C(=O)Nc2ccccc2C(=O)O)cc1OC` in this test?
active

Which outcome was assigned to NC(=S)c1ccc[n+]([C@@H]2O[C@@H](COP(=O)([O-])OP(=O)(O)OC[C@H]3O[C@@H](n4cnc5c(N)ncnc54)[C@H](OP(=O)(O)O)[C@@H]3O)C(O)C2O)c1 (stereo not given in full) in this test?
inactive

Which outcome was assigned to `CN(C)c1ccc(N=NS(=O)(=O)O)cc1` in this test?
inactive

Which outcome was assigned to `O=C(O)Cc1ccc2c(c1)C(=O)c1ccccc1CO2` in this test?
inactive

====

# test protocol: qHTS of pediatric cancer cell lines to identify multiple opportunities for drug repurposing: Primary screen for NB1643 cells (AID 1347099); further: nearly all actives have a fitted effect of over 50% in size
# assay context: NB1643 neuroblastoma viability, CellTiter-Glo luminescence, 48 h; series mostly up to 46 µM
# Procedure: Drug repurposing or repositioning has been offered as a strategy for drug development in oncology programs. This approach has special potential for childhood cancers and other rare or orphan diseases, where the expected return on new drug development has been a disincentive to pharmaceuticals. […] We employed a titration-based paradigm (quantitative high-throughput screening or qHTS), where all compounds were tested at multiple concentrations for their effect on cell viability. […]
Records with an inconclusive call do not appear. Calls of active or inactive are those of the source. Calls come from the whole dose curve; as a rule, active = well fitted cell-killing curve with a large enough effect; inconclusive = small, poorly fitted or top-dose-only effect; inactive = no such curve, though single readings can be large or run the other way.
Write down one outcome, taken from active, inactive

Previously resolved entries follow.
compound: CN(C)c1ccc(C(=C2C=CC(=[N+](C)C)C=C2)c2ccccc2)cc1
discrete label: active
--
compound: COc1cccc2c1C(=O)c1c(O)c3c(c(O)c1C2=O)C[C@@](O)(C(=O)CO)C[C@@H]3O[C@H]1C[C@H](N)[C@H](O[C@@H]2CCCCO2)[C@H](C)O1
discrete label: active
--
compound: CNC(=O)c1c(I)c(NC(=O)CCCCC(=O)Nc2c(I)c(C(=O)O)c(I)c(C(=O)NC)c2I)c(I)c(C(=O)O)c1I
discrete label: inactive
--
compound: N=C1N=C(N)c2cc3ccccc3cc21
discrete label: active
--
compound: CCCOC(=O)c1ccc(O)cc1
discrete label: inactive

Which outcome was assigned to `CC(C)OC(=O)c1cc(C(=O)OC(C)C)cc([N+](=O)[O-])c1` in this test?
inactive

Which outcome was assigned to `Cc1c(Nc2ncccc2C(=O)O)cccc1C(F)(F)F` in this test?
inactive

Which outcome was assigned to CCC1C(=O)OCC1Cc1cncn1C (centres undefined) in this test?
inactive

Which outcome was assigned to `CN1CCN(c2cc3c(nn2)Oc2ccccc2N3C)CC1` in this test?
inactive

Which outcome was assigned to `CCCCCCCCCCCC(=O)[O][Sn]([CH2]CCC)([CH2]CCC)[O]C(=O)CCCCCCCCCCC` in this test?
inactive

Which outcome was assigned to `COc1ccc(-c2cc(=S)ss2)cc1` in this test?
inactive
